Assay: Partition coefficient, log P of the compound
Assay type: physicochemical
Details: octanol/water
logP values, listed per item
READOUT_KIND: logP

>>> df
                                   molecule  readout_kind  numeric_result
0  c1cc([C@H]2CC[C@@]3(CC2)C[C@@]2(OO3)C3CC4CC(C3)CC2C4)ccc1OCCN1CCOCC1          logP            5.66
1  CC(C)(N)CNC(=O)CC1CCC2(CC1)COC1(OO2)C2CC3CC(C2)CC1C3 (stereo unspecified)          logP            2.44
2  CC(C)(N)CNC(=O)CC1CCC2(CC1)OOC1(OO2)C2CC3CC(C2)CC1C3 (stereo unspecified)          logP            2.26
3  CC(C)(N)CNC(=O)C[C@H]1CC[C@]2(CC1)OO[C@]1(O2)C2CC3CC(C2)CC1C3          logP            2.07
4  CC(C)(N)CNC(=O)C[C@H]1CC[C@@]2(CC1)C[C@@]1(OO2)C2CC3CC(C2)CC1C3          logP            3.21
5  c1cc([C@H]2CC[C@]3(CC2)OO[C@]2(O3)C3CC4CC(C3)CC2C4)ccc1OCCN1CCOCC1          logP            4.63

Ref: ChEMBL document CHEMBL2321701
